study_target: human macrophage galactose-type lectin (hMGL) extracellular domain (Homo sapiens, UniProt Q8IUN9)
experiment_notes: ITC titration of ligands into hMGL
Assay type: binding
applied_conditions: ITC, buffered D2O (10 mM HEPES sodium salt, 50 mM NaCl, 2 mM CaCl2, pH 7.4), 25 °C
parameter_measured: Kd (µM)
The answer is to be given in µM; state only the numeric part.

Exam item: Which value of Kd has been reported for CC(=O)N[C@H]1C(O)O[C@H](CO)[C@H](O)[C@@H]1O (stereo partly drawn) [GalNAc, N-acetyl-D-galactosamine] in the records?
Marked response: 7.25

====

study_target: human macrophage galactose-type lectin (hMGL) extracellular domain (Homo sapiens, UniProt Q8IUN9)
experiment_notes: ITC titration of ligands into hMGL
Assay type: binding
applied_conditions: ITC, buffered H2O (10 mM HEPES sodium salt, 50 mM NaCl, 2 mM CaCl2, pH 7.4), 25 °C
parameter_measured: Kd (µM)
The answer is to be given in µM; state only the numeric part.

Exam item: Which value of Kd has been reported for CC(=O)N[C@H]1C(O)O[C@H](CO)[C@H](O)[C@@H]1O (stereo partly drawn) [GalNAc, N-acetyl-D-galactosamine] in the records?
Marked response: 17.7
